Experiment: reduced viability of SK-BR-3 breast cancer cells – cell-based, 24 h, human, pilot screen (AID 572);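 also: compound exposure lasted between 18 and 24 h rather than exactly 24 h; 100% = carrier-treated control wells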
Conditions: SK-BR-3 viability, CellTiter-Glo luminescence, at 10 µM, active compounds read low
# key: entry, value: viability
ENDPOINT: viability (%)

>>> numeric_readout("CCN(CC)c1ccc2cc(-c3nc4ccccc4[nH]3)c(=O)oc2c1")
88
>>> numeric_readout("Cc1cc(C)cc(N(CC(=O)NC2CCC(C)CC2)S(=O)(=O)c2c(C)noc2C)c1 (stereo not given)")
104
>>> numeric_readout("C=CCn1c(SC(C)C(=O)NC2(C#N)CCCCC2)nnc1-c1ccc(OC)cc1 (stereo not given)")
90
>>> numeric_readout("COc1cccc(C2C(C(=O)c3ccc(C)o3)=C(O)C(=O)N2CCCN(C)C)c1 (stereo not given)")
99.5
>>> numeric_readout("Oc1ccc2ccccc2c1CN1CCN(c2ccccc2F)CC1")
110

* * *

Assay: MRP1 drug-resistance reversers in H69AR cells – cell-based, doxorubicin co-treatment, pilot screen (AID 601)
Conditions: H69AR cells + 2 uM doxorubicin, CellTiter-Glo, 72 h; at 10 µM; active compounds read high
ENDPOINT: differential viability (reversal) (%)

>>> numeric_readout("CCCCCn1c(=O)[nH]c2cc(C(=O)NCCN3CCOCC3)ccc2c1=O")
16.1
>>> numeric_readout("COc1ccc(CN2C(=O)CN=C2Nc2ccc(C)cc2C)cc1")
7.04
>>> numeric_readout("CC(C)Sc1nc2c(c(=O)n1-c1ccc(F)cc1)SCC2")
7.33
>>> numeric_readout("CCCN1CCN(CCCNC(=O)Cn2ncc3c4ccccc4n(C)c3c2=O)CC1")
5.29
>>> numeric_readout("CCOc1ccccc1N1Cc2cc(C)c(C)cc2C1")
-9.66
>>> numeric_readout("CC1CCCCN1CCNC(=O)C1CCN(S(=O)(=O)c2cccc3cccnc23)CC1 (stereo unspecified)")
4.43
>>> numeric_readout("O=C(COC(=O)C1(c2ccccc2F)CCCC1)NC1CCS(=O)(=O)C1 (stereo unspecified)")
3.27
>>> numeric_readout("COc1cccc2c(=O)c3c(cnn3C)n(C)c12")
-10.9
>>> numeric_readout("O=C(c1ccc(Cl)s1)N1CCN(c2nc3ccccc3s2)CC1")
-0.215
>>> numeric_readout("Cc1cc(NS(=O)(=O)c2ccccc2)no1")
-1.04
>>> numeric_readout("CCOCCCNC(=O)C(c1ccc(C)cc1)N(Cc1ccc2c(c1)OCO2)C(=O)c1cnccn1 (stereo unspecified)")
-0.27
>>> numeric_readout("CCN(C(=O)c1cc(Cl)ccc1OC)c1ccccc1")
2.06
>>> numeric_readout("COc1ccc(NS(=O)(=O)c2coc(C(N)=O)c2)cc1Cl")
-8.07
>>> numeric_readout("Cc1ccc(N2CCN(S(=O)(=O)N(C)C)CC2)c(C)c1")
-9.57
>>> numeric_readout("CCC1CCCCN1CCNS(=O)(=O)c1ccc2c(c1)oc(=O)n2C (stereo unspecified)")
0.025
>>> numeric_readout("COc1ccccc1N(CC(=O)Nc1cccnc1)S(C)(=O)=O")
1.5
>>> numeric_readout("CCC(C)(NC(=O)c1ccc(=O)[nH]c1)C(=O)NC1CCCC1 (stereo unspecified)")
12.3
>>> numeric_readout("CSc1ccccc1NC(=O)C1CCCO1 (stereo unspecified)")
-0.325
>>> numeric_readout("CCOc1ccccc1NC(=O)C1CCCN(S(=O)(=O)c2cccc3cccnc23)C1 (stereo unspecified)")
-11.7
>>> numeric_readout("Cc1cc(C)n2nc(S(=O)(=O)N(C)c3ccccc3)nc2n1")
0.67
>>> numeric_readout("COC(=O)CCCCC(=O)C1C(=O)CC(C)(C)C(C(=O)OC)C1=O (stereo unspecified)")
-3.76
>>> numeric_readout("C=CCOc1ccc(/C(CC)=N/O)c(OC)c1")
10.5
>>> numeric_readout("CCOc1cc(C2CC(=O)N3CN(C4CCCCC4)CSC3=C2C#N)ccc1O (stereo unspecified)")
-13.7
>>> numeric_readout("Cc1nc2ccccc2c2oc(C(=O)N3CCC(N4CCCCC4)CC3)cc12")
9.3
>>> numeric_readout("CCOC(=O)N1CCC(NC(=O)C2CCCN(C(=O)c3cc4sccc4n3C)C2)CC1 (stereo unspecified)")
-0.91
>>> numeric_readout("Cc1cnc(NC(=O)CSc2nnc(COc3c(C)cccc3C)o2)s1")
-6.84
>>> numeric_readout("CCOC(=O)N1CCN(C(=O)COc2ccc(S(=O)(=O)NC(C)C)cc2)CC1")
0.365
>>> numeric_readout("CCOC(=O)N1CCN(c2cc(=O)n(-c3cccc(Br)c3)c(=O)[nH]2)CC1")
17.2
>>> numeric_readout("O=C(Nc1ccncc1)c1cc2ccccc2o1")
13.8
>>> numeric_readout("CCOC(=O)Cn1c(CCC(=O)O)ccc1-c1ccc(F)cc1")
-8.34
>>> numeric_readout("CC1(C)Oc2ccc3ccc(=O)oc3c2C(N2CCCCC2)C1O (stereo unspecified)")
7.25
>>> numeric_readout("CCCCN(CCCC)CCn1cnc2c([nH]c3ccc(OC)cc32)c1=O")
-12.8
>>> numeric_readout("CC(=O)N1CCc2c(sc(NC(=O)c3ccc(S(=O)(=O)N(C)C)cc3)c2C#N)C1")
5.97
>>> numeric_readout("N#C/C(C(=O)c1ccccc1)=C1/CCCN1")
5.69
>>> numeric_readout("COc1ccc(NC(=O)c2cc(C3CC3)on2)c(OC)c1")
-7.87
>>> numeric_readout("COc1ccc(CCn2c(-c3ccco3)nc3ccccc3c2=O)cc1OC")
-29.2
>>> numeric_readout("O=C(NCCc1cccc(Cl)c1)c1cccnc1")
26.5
>>> numeric_readout("O=C(c1ccc(CNc2c(N3CCCC3)c(=O)c2=O)cc1)N1CCc2ccccc2C1")
2.69
>>> numeric_readout("COc1ccc(-c2nc(N3CCCC3)[nH]c(=O)c2C#N)cc1")
2.17
>>> numeric_readout("COc1cc2[nH]c(=O)n(CCCCCC(=O)NCCCN3CCCC3=O)c(=O)c2cc1OC")
11.6
>>> numeric_readout("COc1ccccc1C(=O)NCCc1nc2ccccc2n1C")
5.79
>>> numeric_readout("Cn1ccnc1SCC(=O)Nc1ccc2ccccc2c1")
17.8
>>> numeric_readout("CC(C)Cc1nnc(NS(=O)(=O)c2ccc(Cl)cc2)s1")
-4.72
>>> numeric_readout("O=C(c1cccs1)N1CCc2ccccc21")
14.6
>>> numeric_readout("COc1ccc(C2C(C(=O)N3CCC(C)CC3)c3ccccc3C(=O)N2C)cc1 (stereo unspecified)")
-1.18
>>> numeric_readout("CC1=C(C(N)=O)C(c2ccncc2)n2nc(-c3ccccc3Cl)nc2N1 (stereo unspecified)")
13.3
